EXPERIMENT SUMMARY: chemical genetic growth profiling, strain panel (AID 1159580);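 further: tested at 20 µM; growth read once vehicle control cultures reached saturation at 30 °C; lower values mean less growth of the strain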
CONDITION DESCRIPTION: S. cerevisiae deletion strains, growth OD, locus YOR119C, strain RIO1
Screen size: about 5,500 compounds; about 2,000 (36%) were called active. Not shown: some 18% with an inconclusive outcome. No stated cut-off is given here; in the data, active means normalized growth mostly below about 0.91 (no sharp cut-off); inconclusive means no clear call, values can overlap the other calls; inactive means mostly above about 0.92. This is one part of the list.
Valid outcomes are listed here; reply with one: t = active, f = inactive

The following molecules have reported results that may help.
> print(dat)
                                   molecule  group
1  O=C(Nc1ccccc1Sc1ccc(C(F)(F)F)cc1[N+](=O)[O-])C(Cl)Cl      f
2              CC(C)OC(=O)Nc1cc(Cl)cc(Cl)c1      f
3  COc1cc(C2SCCS2)cc(Br)c1OC(=O)NC(=O)c1c(Cl)cccc1Cl      f
4                 O=C1c2ccccc2C(=O)c2sccc21      t
5  O=S(=O)(Nc1cc(C(F)(F)F)cc(C(F)(F)F)c1)c1ccc(Cl)s1      f

**Q:** For this molecule, state the assay outcome: Cc1ccc2nc3c(nc2c1)-c1ccccc1C3=O
**A:** t

**Q:** For this molecule, state the assay outcome: Cc1oc(C(C)(C)C)cc1-c1cc(NC(=O)c2ccccc2)n[nH]1
**A:** f
